Assay: Solubility test in various carriers (Example 1)
Type: physicochemical
Details: aqueous buffer, thermodynamic from solid; carrier: Citrate buffer (pH=2; 50 mM); read-out: Solubility after 2 h
experimental_endpoint: solubility at 2 h (µg/mL)
The response must be a number in µg/mL with no trailing unit.

Look at this compound and give its reported solubility at 2 h. "Cc1c(N(C(=O)c2cc(-c3cc(Cl)ccc3C(=O)N3Cc4ccccc4C[C@H]3CN3CCOCC3)n(C)c2C)c2ccc(O)cc2)cc(C#N)n1C"
240
